LEUKOCYTE COUNT: recorded values
# Organism: Rattus norvegicus
# test: DrugMatrix - Regimen: Daily Repeat
# Format: toxicity, organism-based, Sprague-Dawley
# Design: regimen Daily Repeat, gender Male, age 6-8 weeks
# study_conditions: in vivo, po, 0 mg/kg, 72 h, tissue Blood, route oral GAVAGE, dose level Control, time 3 day, vehicle .5 % CMC
assay_metric: LEUKOCYTE COUNT (x10E3/uL)

molecule: CC1CC(OC(=O)C(O)c2ccccc2)CC(C)(C)C1 (stereo not drawn) [CYCLANDELATE]
readout_unit: x10E3/uL
value_observed: 11.18

molecule: N=C(N)NCCN1CCCCCCC1
readout_unit: x10E3/uL
value_observed: 11.18

molecule: Cc1ccc2cc3c(ccc4ccccc43)c3c2c1CC3
readout_unit: x10E3/uL
value_observed: 11.41

molecule: CN1CCN(CCCN2c3ccccc3Sc3ccc(Cl)cc32)CC1
readout_unit: x10E3/uL
value_observed: 12.4

molecule: CC(C)(C)NC(=O)[C@@H]1C[C@@H]2CCCC[C@@H]2CN1C[C@@H](O)[C@H](Cc1ccccc1)NC(=O)[C@H](CC(N)=O)NC(=O)c1ccc2ccccc2n1
readout_unit: x10E3/uL
value_observed: 16.17

molecule: Cc1ccc(/N=C/N(C)/C=N/c2ccc(C)cc2C)c(C)c1
readout_unit: x10E3/uL
value_observed: 13.4

molecule: NC1=NC(=O)C(c2ccccc2)O1 (stereo not drawn)
readout_unit: x10E3/uL
value_observed: 10.64

molecule: ClC(Cl)Br
readout_unit: x10E3/uL
value_observed: 16.87
